The measured values listed here are drawn from paper PMC6610666.

- Target system: mouse CBP TAZ1 (residues 340-439) (mouse, UniProt P45481 340-439)
- Sequence (P45481 340-439): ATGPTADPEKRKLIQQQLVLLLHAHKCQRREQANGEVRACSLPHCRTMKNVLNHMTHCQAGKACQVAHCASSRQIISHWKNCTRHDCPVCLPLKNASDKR
- Assay info: ITC
pKd: −log10 of the molar value.
Quantity kind: pKd

Binder	Quantity kind	Observed measurement
HDYIYNLDESEGVCDLFD (domain or fragment) [human E2F4 transactivation domain (residues 390-407)]	pKd	6.15
